system: A156T mutant of the HCV NS3/4A 1b protease enzyme (Hepatitis C virus genotype 1b, UniProt P26663, A1182T)
Construct: 10× stocks of NS3/4A protease enzyme from Bioenza (Mountain View, Calif.); purchased Bioenza (Mountain View, Calif.)
measurementDescription: HCV Protease FRET Assay (IC50_APP), A156T mutant
Assay type: biochemical
experimentalContext: apparent IC50, A156T mutant; read-out: IC50_APP, HCV A156T
measuredEndpoint: IC50

- smilesRecord: "C=CC(=O)O[C@H](C)[C@H](NC(=O)OC(C)(C)C)C(=O)N1C[C@H](Oc2cc(-c3ccccc3)nc3cc(OC)ccc23)C[C@H]1C(=O)N[C@]1(C(=O)NS(=O)(=O)C2CC2)C[C@H]1C=C"
  measuredEndpoint: "IC50"
  assayValue: "0.01 to 0.1 µM"
- smilesRecord: "C=CC(=O)N(C)C[C@H](NC(=O)OC(C)(C)C)C(=O)N1C[C@H](Oc2nccc3ccc(Br)cc23)C[C@H]1C(=O)N[C@]1(C(=O)NS(=O)(=O)C2CC2)C[C@H]1C=C"
  measuredEndpoint: "IC50"
  assayValue: "0.1 to 1 µM"
- smilesRecord: "C=CC(=O)N[C@@H](C(=O)N1C[C@H](Oc2cc(-c3ccccc3)nc3cc(OC)ccc23)C[C@H]1C(=O)N[C@]1(C(=O)NS(=O)(=O)C2CC2)C[C@H]1C=C)C(C)C"
  measuredEndpoint: "IC50"
  assayValue: "0.01 to 0.1 µM"
- smilesRecord: "C=C[C@@H]1C[C@]1(NC(=O)[C@@H]1C[C@@H](Oc2nccc3ccc(-c4cccs4)cc23)CN1C(=O)[C@H](CCC(=O)C=C(C)C)NC(=O)OC(C)(C)C)C(=O)NS(=O)(=O)C1CC1"
  measuredEndpoint: "IC50"
  assayValue: "0.01 to 0.1 µM"

* * *

system: wild type HCV NS3/4A 1b protease enzyme (Hepatitis C virus genotype 1b, UniProt P26663)
Construct: 10× stocks of NS3/4A protease enzyme from Bioenza (Mountain View, Calif.); purchased Bioenza (Mountain View, Calif.)
measurementDescription: HCV Protease FRET Assay (IC50_APP), wild type
Format: biochemical
measuredEndpoint: IC50

- smilesRecord: "C=CC(=O)N[C@H](C)C(=O)N1C[C@H](Oc2cc(-c3ccccc3)nc3cc(OC)ccc23)C[C@H]1C(=O)N[C@]1(C(=O)NS(=O)(=O)C2CC2)C[C@H]1C=C"
  assayValue: "< 0.01 µM"
- smilesRecord: "C=C[C@@H]1C[C@]1(NC(=O)[C@@H]1C[C@@H](Oc2nccc3ccc(-c4cccs4)cc23)CN1C(=O)[C@H](CCC(=O)C=C(C)C)NC(=O)OC(C)(C)C)C(=O)NS(=O)(=O)C1CC1"
  assayValue: "< 0.01 µM"
- smilesRecord: "C=C[C@@H]1C[C@]1(NC(=O)[C@@H]1C[C@@H](Oc2nccc3cc(OC)ccc23)CN1C(=O)[C@H](CCC(=O)/C=C/C1CCCC1)NC(=O)OC(C)(C)C)C(=O)NS(=O)(=O)C1CC1"
  assayValue: "< 0.01 µM"
- smilesRecord: "C=CC(=O)NC[C@H](NC(=O)OC1CCCC1)C(=O)N1C[C@H](Oc2nccc3ccc(-c4cccs4)cc23)C[C@H]1C(=O)N[C@]1(C(=O)NS(=O)(=O)C2CC2)C[C@H]1C=C"
  assayValue: "< 0.01 µM"
- smilesRecord: "C=C[C@@H]1C[C@]1(NC(=O)[C@@H]1C[C@@H](Oc2cc(-c3ccccc3)nc3cc(OC)ccc23)CN1C(=O)[C@@H](NC(=O)OC(C)(C)C)[C@@H](C)OC(=O)/C=C/C)C(=O)NS(=O)(=O)C1CC1"
  assayValue: "< 0.01 µM"
- smilesRecord: "C=CC(=O)NC[C@@H]1NC(=O)OCCC/C=C/c2ccc3ccnc(c3c2)O[C@@H]2C[C@@H](C(=O)N[C@]3(C(=O)NS(=O)(=O)C4CC4)C[C@H]3C=C)N(C2)C1=O"
  assayValue: "< 0.01 µM"

* * *

system: wild type HCV NS3/4A 1b protease enzyme (Hepatitis C virus genotype 1b, UniProt P26663)
Construct: 10× stocks of NS3/4A protease enzyme from Bioenza (Mountain View, Calif.); purchased Bioenza (Mountain View, Calif.)
measurementDescription: biochemical
Format: biochemical
experimentalContext: read-out: Inhibition, WT; WT enzyme, FRET assay
measuredEndpoint: IC50

- compound: "C=CC(=O)N1C[C@H](Oc2cc(-c3ccccc3)nc3cc(OC)ccc23)C[C@H]1C(=O)N[C@]1(C(=O)NS(=O)(=O)C2CC2)C[C@H]1C=C"
  system: "wild type HCV NS3/4A 1b protease enzyme (Hepatitis C virus genotype 1b, UniProt P26663)"
  assayValue: "10 to 100 nM"
- compound: "C=C[C@@H]1C[C@]1(NC(=O)[C@@H]1C[C@@H](Oc2cc(-c3ccccc3)nc3cc(OC)ccc23)CN1C(=O)CNC(=O)/C=C/C)C(=O)NS(=O)(=O)c1ccccc1"
  system: "wild type HCV NS3/4A 1b protease enzyme (Hepatitis C virus genotype 1b, UniProt P26663)"
  assayValue: "10 to 100 nM"
- compound: "C=C[C@@H]1C[C@]1(NC(=O)[C@@H]1C[C@@H](Oc2cc(-c3ccccc3)nc3cc(OC)ccc23)CN1C(=O)[C@H](CN(C)C(=O)C(=C)C)NC(=O)OC(C)(C)C)C(=O)NS(=O)(=O)c1ccccc1"
  system: "wild type HCV NS3/4A 1b protease enzyme (Hepatitis C virus genotype 1b, UniProt P26663)"
  assayValue: "< 10 nM"
- compound: "C=CC(=O)N(C)C[C@H](NC(=O)OC(C)(C)C)C(=O)N1C[C@H](Oc2cc(-c3ccccc3)nc3cc(OC)ccc23)C[C@H]1C(=O)N[C@]1(C(=O)NS(=O)(=O)c2ccccc2)C[C@H]1C=C"
  system: "wild type HCV NS3/4A 1b protease enzyme (Hepatitis C virus genotype 1b, UniProt P26663)"
  assayValue: "< 10 nM"
- compound: "C=C[C@@H]1C[C@]1(NC(=O)[C@@H]1C[C@@H](Oc2cc(-c3ccccc3)nc3cc(OC)ccc23)CN1C(=O)[C@H](CNC(=O)[C@@H](C)Cl)NC(=O)OC(C)(C)C)C(=O)NS(=O)(=O)c1ccccc1"
  system: "wild type HCV NS3/4A 1b protease enzyme (Hepatitis C virus genotype 1b, UniProt P26663)"
  assayValue: "< 10 nM"
- compound: "C=CC(=O)NC[C@H](NC(=O)OC(C)(C)C)C(=O)N1C[C@H](Oc2cc(-c3ccccc3)nc3cc(OC)ccc23)C[C@H]1C(=O)N[C@]1(C(=O)NS(=O)(=O)c2ccccc2)C[C@H]1C=C"
  system: "wild type HCV NS3/4A 1b protease enzyme (Hepatitis C virus genotype 1b, UniProt P26663)"
  assayValue: "< 10 nM"
- compound: "C=CC(=O)OC(C)(C)[C@H](NC(=O)OC(C)(C)C)C(=O)N1CC(Oc2cc(-c3ccccc3)nc3cc(OC)ccc23)C[C@H]1C(=O)N[C@]1(C(=O)NS(=O)(=O)C2CC2)C[C@H]1C=C (stereo partly drawn)"
  system: "wild type HCV NS3/4A 1b protease enzyme (Hepatitis C virus genotype 1b, UniProt P26663)"
  assayValue: "10 to 100 nM"
- compound: "C=C[C@@H]1C[C@]1(NC(=O)[C@@H]1C[C@@H](Oc2cc(-c3ccccc3)nc3cc(OC)ccc23)CN1C(=O)[C@H](CN(C)C(=O)CCl)NC(=O)OC(C)(C)C)C(=O)NS(=O)(=O)c1ccccc1"
  system: "wild type HCV NS3/4A 1b protease enzyme (Hepatitis C virus genotype 1b, UniProt P26663)"
  assayValue: "< 10 nM"
- compound: "C=CC(=O)N(C)CC[C@H](NC(=O)OC(C)(C)C)C(=O)N1C[C@H](Oc2cc(-c3ccccc3)nc3cc(OC)ccc23)C[C@H]1C(=O)N[C@]1(C(=O)NS(=O)(=O)c2ccccc2)C[C@H]1C=C"
  system: "wild type HCV NS3/4A 1b protease enzyme (Hepatitis C virus genotype 1b, UniProt P26663)"
  assayValue: "< 10 nM"
- compound: "C=C[C@@H]1C[C@]1(NC(=O)[C@@H]1C[C@@H](Oc2cc(-c3ccccc3)nc3cc(OC)ccc23)CN1C(=O)CNC(=O)C#CC)C(=O)NS(=O)(=O)C1CC1"
  system: "wild type HCV NS3/4A 1b protease enzyme (Hepatitis C virus genotype 1b, UniProt P26663)"
  assayValue: "10 to 100 nM"
- compound: "C#CCN(C)C(=O)CCCC(=O)N[C@@H](CNC(=O)C=C)C(=O)N1C[C@H](Oc2cc(-c3ccccc3)nc3cc(OC)ccc23)C[C@H]1C(=O)N[C@]1(C(=O)NS(=O)(=O)c2ccccc2)C[C@H]1C=C"
  system: "wild type HCV NS3/4A 1b protease enzyme (Hepatitis C virus genotype 1b, UniProt P26663)"
  assayValue: "< 10 nM"
- compound: "C=C[C@@H]1C[C@]1(NC(=O)[C@@H]1C[C@@H](Oc2cc(-c3ccccc3)nc3cc(OC)ccc23)CN1C(=O)CNC(=O)C(=C)C)C(=O)NS(=O)(=O)c1ccccc1"
  system: "wild type HCV NS3/4A 1b protease enzyme (Hepatitis C virus genotype 1b, UniProt P26663)"
  assayValue: "10 to 100 nM"
- compound: "C=C[C@@H]1C[C@]1(NC(=O)[C@@H]1C[C@@H](Oc2cc(-c3ccccc3)nc3cc(OC)ccc23)CN1C(=O)C1(NC(=O)OC(C)(C)C)CCNCC1)C(=O)NS(=O)(=O)c1ccccc1"
  system: "wild type HCV NS3/4A 1b protease enzyme (Hepatitis C virus genotype 1b, UniProt P26663)"
  assayValue: "100 to 1000 nM"
- compound: "C=CC(=O)N[C@H](C)C(=O)N1C[C@H](Oc2cc(-c3ccccc3)nc3cc(OC)ccc23)C[C@H]1C(=O)N[C@]1(C(=O)NS(=O)(=O)c2ccccc2)C[C@H]1C=C"
  system: "wild type HCV NS3/4A 1b protease enzyme (Hepatitis C virus genotype 1b, UniProt P26663)"
  assayValue: "< 10 nM"
- compound: "C=CC(=O)NC[C@H](NC(=O)CCCCCNC(=O)CCCC[C@@H]1SC[C@@H]2NC(=O)N[C@@H]21)C(=O)N1C[C@H](Oc2cc(-c3ccccc3)nc3cc(OC)ccc23)C[C@H]1C(=O)N[C@]1(C(=O)NS(=O)(=O)c2ccccc2)C[C@H]1C=C"
  system: "wild type HCV NS3/4A 1b protease enzyme (Hepatitis C virus genotype 1b, UniProt P26663)"
  assayValue: "< 10 nM"
